The origin of these recorded values is the supplement of paper PMC3334620.

Target: Vhr1 (UniProt P40522)
Sequence: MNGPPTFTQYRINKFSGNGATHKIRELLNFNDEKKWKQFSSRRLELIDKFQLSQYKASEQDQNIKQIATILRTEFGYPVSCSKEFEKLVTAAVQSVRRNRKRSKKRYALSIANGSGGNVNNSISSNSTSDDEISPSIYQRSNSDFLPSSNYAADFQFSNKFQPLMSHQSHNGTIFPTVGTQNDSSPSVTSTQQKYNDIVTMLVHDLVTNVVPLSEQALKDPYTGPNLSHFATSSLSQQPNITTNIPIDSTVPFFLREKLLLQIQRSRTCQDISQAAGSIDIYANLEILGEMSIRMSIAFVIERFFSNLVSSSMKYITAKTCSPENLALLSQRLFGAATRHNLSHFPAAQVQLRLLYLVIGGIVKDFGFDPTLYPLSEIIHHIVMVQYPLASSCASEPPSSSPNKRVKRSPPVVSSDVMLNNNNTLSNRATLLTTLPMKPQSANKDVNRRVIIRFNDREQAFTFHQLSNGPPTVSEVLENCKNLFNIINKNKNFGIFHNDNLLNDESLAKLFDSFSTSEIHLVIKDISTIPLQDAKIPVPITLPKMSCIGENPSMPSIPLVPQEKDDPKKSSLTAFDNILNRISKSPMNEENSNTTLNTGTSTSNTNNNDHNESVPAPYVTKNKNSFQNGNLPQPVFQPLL
Experiment: PBM E-score (8-mer binding enrichment) (E-score (-0.5 to 0.5)); higher = stronger / more preferred TF binding
Settings: protein concentration: 200 nM; construct: GST-full length
The full ranking holds about 33,000 sequences; the median of “E-score (-0.5 to 0.5)” is about -0.012, and the highest 2% start at about 0.27. This is one part of a sample in which the highest values are shown more often than they occur.
Reported PBM E-score is given for each of the following sequences.

Completed entries (count: 6):
GAGCGACC = -0.162
AATTGAGG = -0.233
ATAAGGGA = -0.137
AAAGTCAG = 0.119
GTGGGTCA = 0.365
AGGTCACC = -0.16

PBM E-score for TGAAATAA ?
-0.158

What about ACAGTCAG ?
0.228

// same read-out, input: ACCTCCTG
-0.139

Try the sequence AGAGTCCC
-0.205
